SUBJECT OF TEST: SHP2-C SH2
ASSAY TEXT: SH2 binding enrichment of the phosphorylated peptide, bacterial display (enrichment ratio); higher = better substrate or ligand; peptides without Tyr show the background;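 note: peptide library displayed on the E. coli surface as eCPX fusions, selected cells deep-sequenced, score is each peptide's frequency after selection divided by its frequency in the input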
OUTCOME MEASURE: SH2 binding enrichment

>>> reported_result("LEAFQYIGESQ [MSH2_Y856_E853A]")
0.682
>>> reported_result("VSLLPYFPAIM [IPO4_Y518_A513V]")
0.848
>>> reported_result("SVVVPYEPLEV [TP53_Y220_P223L]")
0.598
>>> reported_result("AAYNRYDQERF [CDC73_Y293]")
0.585
>>> reported_result("PFRQWYESHFA [RPS8_Y113_YF]")
1.04
>>> reported_result("HNQDGYSYLSR [LDLR_Y845_P848L]")
2.08
>>> reported_result("VASMFYTLVIP [OR8K3_Y277_I275M]")
1.13
>>> reported_result("SDGHEYIFVDR [PDGFRB_Y579_P584R_YF]")
0.676
>>> reported_result("RDHYGYRQSVT [CD55_Y245]")
0.775
>>> reported_result("SHLSAFPALEG [CD5_Y465_Y465F]")
0.751
>>> reported_result("RAIGHYSATSK [FAM120A_Y328_Y327H]")
0.81
>>> reported_result("SGTFQYIIAKF [FOXL2_Y83_I80T_YF]")
0.572
>>> reported_result("NPQKSYFILLY [WAS_Y83_R86L]")
0.827
>>> reported_result("GGQVFYNSEFG [FLT4_Y1333_YF]")
0.735
>>> reported_result("DRLASYLDKVR [KRT10_Y160]")
0.626
>>> reported_result("EVGHVYLFLQP [ITGA2B_Y360_R358H]")
0.669
>>> reported_result("RCNHPYLINGA [CHD7_Y1256_C1251R]")
0.693
>>> reported_result("KNNDGYTDYAE [MCFD2_Y135_I136T]")
0.588
>>> reported_result("VKALKYKSMKI [ITGA11_Y1098_L1093V]")
1.23
>>> reported_result("NLTVNYKKNLI [SQOR_Y259]")
0.61
>>> reported_result("FTYDPYSEEEP [IL2RB_Y387_D391E]")
0.699
>>> reported_result("NAMRRHIEEFQ [MNS1_Y244_Y244H]")
0.636
>>> reported_result("EALSLYTKLMN [STAM_Y371]")
1.41
>>> reported_result("CTSIHYNFMCN [TP53_Y234_T231S_YF]")
1.59
>>> reported_result("GKMPQYLESMQ [CYB5R3_Y130_S128P]")
0.932
>>> reported_result("KNKKDYYDMYE [SLC26A3_Y526]")
0.937
>>> reported_result("PLRADYLIARV [HLCS_Y635]")
0.711
>>> reported_result("LTDLRYKVSGP")
0.82
>>> reported_result("RRIHSYRGYLW [VHL_Y112_H115Y]")
0.534
